Organism: Rattus norvegicus
Test: DrugMatrix - Regimen: Daily Repeat
Type: toxicity, organism-based, Sprague-Dawley
Parameters: regimen Daily Repeat, gender Male, age 6-8 weeks
Details: in vivo, po, 0 mg/kg, 72 h, tissue Blood, route oral GAVAGE, dose level Control, time 3 day, […]
Would you mind telling me the reported NUCLEATED RED BLOOD CELLS of each entry?

# input Return reported NUCLEATED RED BLOOD CELLS; argument: COC1=CC(=O)C[C@@H](C)[C@]12Oc1c(Cl)c(OC)cc(OC)c1C2=O
# output 0 /100WBC

# input State the recorded NUCLEATED RED BLOOD CELLS for this entry: CCCC[C@@H](CC)COC(=O)c1ccccc1C(=O)OC[C@@H](CC)CCCC [BIS(2-ETHYLHEXYL)PHTHALATE]
# output 0.33 /100WBC

# input Look at this molecule and give its reported NUCLEATED RED BLOOD CELLS. CCCCCCCCCc1ccc(O)cc1
# output 0 /100WBC

# input I have this molecule here, c1ccc2[nH]c(-c3cscn3)nc2c1 , and I need its recorded NUCLEATED RED BLOOD CELLS.
# output 0.33 /100WBC

# input So what does the record say about NUCLEATED RED BLOOD CELLS for CC(=O)[C@H]1CC[C@H]2[C@@H]3CCC4=CC(=O)CC[C@]4(C)[C@H]3CC[C@]12C ?
# output 0 /100WBC

# input For the molecule shown here, COCc1c(C(C)C)nc(C(C)C)c(/C=C/[C@@H](O)C[C@@H](O)CC(=O)O)c1-c1ccc(F)cc1 , give the reported NUCLEATED RED BLOOD CELLS.
# output 0 /100WBC

# input Give its NUCLEATED RED BLOOD CELLS value. Item: CC(C)(Oc1ccc(CCNC(=O)c2ccc(Cl)cc2)cc1)C(=O)O [BEZAFIBRATE]
# output 0 /100WBC

# input GET /values?readout=NUCLEATED RED BLOOD CELLS&item= COc1ccc2c(c1)c(CC(=O)OCC(=O)O)c(C)n2C(=O)c1ccc(Cl)cc1
# output 0 /100WBC

# input State the recorded NUCLEATED RED BLOOD CELLS for this entry: Cn1cnc([N+](=O)[O-])c1Sc1ncnc2nc[nH]c12
# output 0 /100WBC

# input Would you mind telling me what NUCLEATED RED BLOOD CELLS value was observed for CC1=C(/C=C/C(C)=C/C=C/C(C)=C\C(=O)O)C(C)(C)CCC1 ?
# output 0.17 /100WBC

# input Quick one: NUCLEATED RED BLOOD CELLS of Clc1ccccc1C(c1ccccc1)(c1ccccc1)n1ccnc1 ?
# output 0 /100WBC

# input Given the molecule CC(C)n1c(/C=C/C(O)CC(O)CC(=O)O)c(-c2ccc(F)cc2)c2ccccc21 (stereo not given) , what is its reported NUCLEATED RED BLOOD CELLS?
# output 0 /100WBC

# input # query: NUCLEATED RED BLOOD CELLS of entry CSc1ccc2c(c1)N(CCC1CCCCN1C)c1ccccc1S2 (stereo not given)
# output 0 /100WBC

# input Field request: NUCLEATED RED BLOOD CELLS | item: Oc1c(Cl)cc(Cl)cc1Sc1cc(Cl)cc(Cl)c1O
# output 0 /100WBC

# input // NUCLEATED RED BLOOD CELLS lookup, key: CN(C)CCCC1(c2ccc(F)cc2)OCc2cc(C#N)ccc21 (stereo not given)
# output 0 /100WBC
